All figures here come from patent US9920063B2.

Tested on: A498
Reported metric: CC50
Your answer should be a number followed by the unit of measure.

QUERY: API: value(readout= CC50, system= A498, query= C=C1C(=O)O[C@H]2[C@H]1CC/C(COC(=O)c1cc3ccccc3[nH]1)=C\CC[C@@]1(C)O[C@@H]21 [BS-1-28] )
RESULT: 5.63 µM

###

Reported metric: CC50 (µM)
Give a bare numeral; the unit µM is implied.

QUERY: API: value(readout= CC50, system= TK-10, query= C=C1C(=O)O[C@H]2[C@H]1CC/C(COC(=O)c1cc3ccccc3[nH]1)=C\CC[C@@]1(C)O[C@@H]21 )
RESULT: 5.39
